System: U2OS
assay-text: normalized growth rate inhibition value (GR) relative to untreated cells (GR value (dimensionless, 1 = untreated growth)); higher = less growth inhibition
settings: 0.0317369 µM; 72 h
Recorded normalized growth rate inhibition value for the following compounds
quantity: normalized growth rate inhibition value

1. COc1cc([C@@H]2c3cc4c(cc3[C@@H](O[C@@H]3O[C@@H]5CO[C@@H](C)O[C@H]5[C@H](O)[C@H]3O)[C@H]3COC(=O)[C@H]23)OCO4)cc(OC)c1O [Etoposide] :: 0.785
2. Nc1cc(C(F)(F)F)c(-c2cc(N3CCOCC3)nc(N3CCOCC3)n2)cn1 :: 0.899
3. Cc1cc(Nc2ncc(Cl)c(Nc3ccccc3S(=O)(=O)C(C)C)n2)c(OC(C)C)cc1C1CCNCC1 :: 1.13
4. Cc1nn(C)c(COc2ccc(N3CCN(S(=O)(=O)N(C)C)CC3)cc2)c1-c1cccc2c(CCCOc3cccc4ccccc34)c(C(=O)O)n(CCN3CCOCC3)c12 :: 0.917
5. CS(=O)(=O)N1CCN(Cc2cc3nc(-c4cccc5[nH]ncc45)nc(N4CCOCC4)c3s2)CC1 :: 0.837
6. CC(C)[C@@H]1NC(=O)[C@H](C)OC(=O)[C@@H](C(C)C)NC(=O)[C@@H](C(C)C)OC(=O)[C@H](C(C)C)NC(=O)[C@H](C)OC(=O)[C@@H](C(C)C)NC(=O)[C@@H](C(C)C)OC(=O)[C@H](C(C)C)NC(=O)[C@H](C)OC(=O)[C@@H](C(C)C)NC(=O)[C@@H](C(C)C)OC1=O :: 0.472
7. CCN1CCN(Cc2ccc(Nc3ncc(F)c(-c4cc(F)c5nc(C)n(C(C)C)c5c4)n3)nc2)CC1 :: 0.834
